# measurement-protocol: growth inhibitors of H69AR lung tumor, primary screen, human, duplicate replicates (AID 580);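 also: 100% = mean luminescence of untreated wells and 0% = no signal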
# condition-parameters: H69AR lung tumor cells viability, ATP luminescence, 72 h; at 10 µM; hits give low values
measured-property: viability (%)
Give bare numbers, in %.

Consider the worked cases shown below.
INSERT INTO assay_data (molecule, measured_property, numeric_value) VALUES
  ('COc1ccc(Cc2noc(-c3ccc(C)cc3)n2)cc1', 'viability', 91.2),
  ('CCOC(=O)N1CCN(c2nc(-c3ccc(Cl)cc3)cs2)CC1', 'viability', 89.1);

Need viability for each of these molecules.
1. CCOC(=O)C(C)n1cnc2c(nnn2Cc2ccc(C)cc2)c1=O (stereo unspecified)
2. Cc1nc2c(C(=O)O)cnn2c(C)c1Cc1ccccc1F
3. Cc1cccc(NC(=O)COc2ccc(Br)cc2)n1
4. Cc1c(C(=O)N2CCOCC2)oc2ccc(S(=O)(=O)N3CCCC3)cc12
5. CCCN1CCC(NC(=O)Nc2ccc(OC)c(OC)c2)CC1
6. Cc1c(NC(=O)C2(c3ccccc3)CCOCC2)c(=O)n(-c2ccccc2)n1C

Ans:
91.9
87.4
99.4
87.8
90.7
93.6
